molecular target: Melatonin receptor type 1B (Homo sapiens) (UniProt P49286); experiment: Intrinsic activity at human cloned MT2 receptor expressed in mouse NIH-3T3 cells assessed as stimulation of [35S]GTPgammaS binding relative to melatonin; type: functional, cell-based; conditions: NIH3T3
Sequence (P49286 whole entry): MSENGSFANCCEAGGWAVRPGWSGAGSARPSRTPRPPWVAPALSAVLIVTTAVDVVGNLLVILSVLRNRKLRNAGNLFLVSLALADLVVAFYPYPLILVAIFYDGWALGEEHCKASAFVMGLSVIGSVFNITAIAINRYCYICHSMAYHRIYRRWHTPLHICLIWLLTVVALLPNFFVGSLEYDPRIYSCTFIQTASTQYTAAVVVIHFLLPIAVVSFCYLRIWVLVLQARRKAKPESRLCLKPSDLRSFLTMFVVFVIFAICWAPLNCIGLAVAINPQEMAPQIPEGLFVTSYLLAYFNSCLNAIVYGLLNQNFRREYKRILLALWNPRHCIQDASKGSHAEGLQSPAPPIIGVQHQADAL
Measure: Intrinsic activity

CC(=O)NCCN(C)c1cccc(OCCCCCCOc2ccccc2)c1 ... 0.54
CC(=O)NCCN(C)c1cccc(OCCCOc2cccc(N(C)CCNC(C)=O)c2)c1 ... 0.33
COc1cccc(N(CCCCCCCCCCN(CCNC(C)=O)c2cccc(OC)c2)CCNC(C)=O)c1 ... 0.37

A = COc1cccc(N(CCCCCCN(CCNC(C)=O)c2cccc(OC)c2)CCNC(C)=O)c1
B = CC(=O)NCCN(C)c1cccc(OCCCCCOc2cccc(N(C)CCNC(C)=O)c2)c1
Short answer wanted: higher Intrinsic activity, A or B ? Pick one and reply with its label. B
(B: 0.64, A: -0.09)
